TARGET OF ASSAY: Kdr (Homo sapiens)
Construct: Kinases are expressed as either kinase domains or full length constructs; made in house
Sequence (P35968 20-1356, species assumed): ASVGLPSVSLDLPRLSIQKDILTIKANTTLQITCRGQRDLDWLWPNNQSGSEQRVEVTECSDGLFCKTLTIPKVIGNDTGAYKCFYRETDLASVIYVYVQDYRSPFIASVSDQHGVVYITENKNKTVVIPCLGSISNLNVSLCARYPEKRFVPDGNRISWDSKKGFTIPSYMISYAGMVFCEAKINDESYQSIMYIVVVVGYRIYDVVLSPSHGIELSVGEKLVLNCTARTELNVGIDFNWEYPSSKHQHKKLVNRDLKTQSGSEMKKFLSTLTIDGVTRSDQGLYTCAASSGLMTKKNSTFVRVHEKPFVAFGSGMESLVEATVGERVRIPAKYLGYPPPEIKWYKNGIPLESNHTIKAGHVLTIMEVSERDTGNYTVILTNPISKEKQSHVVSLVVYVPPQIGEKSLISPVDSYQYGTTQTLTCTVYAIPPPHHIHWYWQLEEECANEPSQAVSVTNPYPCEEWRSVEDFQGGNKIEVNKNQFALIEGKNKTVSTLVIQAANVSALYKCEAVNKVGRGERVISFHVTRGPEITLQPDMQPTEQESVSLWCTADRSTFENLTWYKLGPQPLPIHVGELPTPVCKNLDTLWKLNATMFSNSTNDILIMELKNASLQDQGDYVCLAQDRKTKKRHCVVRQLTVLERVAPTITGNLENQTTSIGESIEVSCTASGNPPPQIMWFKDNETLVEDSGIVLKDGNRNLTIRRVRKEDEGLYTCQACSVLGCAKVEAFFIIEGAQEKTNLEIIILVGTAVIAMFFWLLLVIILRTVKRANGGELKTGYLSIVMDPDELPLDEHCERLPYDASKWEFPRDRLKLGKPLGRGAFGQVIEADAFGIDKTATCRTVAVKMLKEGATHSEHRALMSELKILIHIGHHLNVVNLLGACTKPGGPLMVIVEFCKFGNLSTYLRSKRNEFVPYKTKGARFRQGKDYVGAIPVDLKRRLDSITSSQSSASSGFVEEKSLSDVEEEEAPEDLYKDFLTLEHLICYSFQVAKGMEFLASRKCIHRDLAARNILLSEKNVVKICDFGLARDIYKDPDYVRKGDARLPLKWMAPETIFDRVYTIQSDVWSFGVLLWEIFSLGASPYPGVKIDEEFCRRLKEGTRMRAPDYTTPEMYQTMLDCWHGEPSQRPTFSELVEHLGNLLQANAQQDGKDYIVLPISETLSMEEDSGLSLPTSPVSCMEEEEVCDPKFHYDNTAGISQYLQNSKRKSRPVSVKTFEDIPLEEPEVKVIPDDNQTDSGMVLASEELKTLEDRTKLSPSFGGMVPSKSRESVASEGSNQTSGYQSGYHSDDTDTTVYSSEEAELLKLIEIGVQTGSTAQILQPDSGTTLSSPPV
ASSAY PROTOCOL: Kinase inhibition assay (33P transfer), Kdr
Type: biochemical
CONDITION SUMMARY: read-out: KDR-1
pIC50: −log10 of the molar value.
READOUT TYPE: pIC50

Worked cases, answers included:
MOLECULE	DATA VALUE
COc1cc(OC)nc(Nc2ncnc(-n3c(=O)[nH]c4ccccc43)n2)n1 [Compound 491]	4.91 to 5.02
COC(=O)c1cc(OC)c(OC)cc1Nc1ncnc(-n2c(N)nc3ccccc32)n1 [Compound 476]	4.97 to 5.08

Field: next molecule
Log: Kdr (Homo sapiens), molecule c1ccc(Cn2ncc3cc(Nc4ncnc(Nc5ncccn5)n4)ccc32)cc1 [Compound 738] , pIC50 = < 4.94

----------
TARGET OF ASSAY: Kdr (Homo sapiens)
Construct: Kinases are expressed as either kinase domains or full length constructs; made in house
ASSAY PROTOCOL: Kinase inhibition assay (33P transfer), Kdr
Type: biochemical
CONDITION SUMMARY: read-out: KDR-1
# maps each entry to its IC50

COMPOUND	DATA VALUE
COc1cc(Nc2ncnc(Nc3cc(-c4cccc(Cl)c4)n[nH]3)n2)cc(OC)c1OC [Compound 495]	7.71 to 9.91 µM
CN(c1cccc(Cl)c1)c1ncnc(Nc2ccc3[nH]ccc3c2)n1 [Compound 714]	1.14 to 6.84 µM
O=c1[nH]c2ccccc2n1-c1ncnc(Nc2ccc(Cl)cc2Cl)n1 [Compound 504]	> 12.1 µM

get_value(item= COc1ccc(Nc2ncnc(Nc3cccc(-c4ccnc(C)n4)c3)n2)cc1OC [Compound 789] , readout=IC50) returns > 10.8 µM

The compound COc1cc(Nc2ncnc(-n3c(NCc4cccc(F)c4)nc4ccccc43)n2)cc(OC)c1OC [Compound 513] showed IC50 equal to < 0.798 µM

The compound listed as CCN(CC)CCNc1ncnc(N(C)c2cccc(Cl)c2)n1 [Compound 745] has a reported IC50 of > 13.4 µM

The measured IC50 associated with c1ccc(Cn2ncc3cc(Nc4ncnc(NCc5ccco5)n4)ccc32)cc1 [Compound 728] reads 1.01 to 6.04 µM

Measured IC50 of Cc1ccc2c(c1)CCCN2c1ncnc(Nc2cccc(Cl)c2C)n1 [Compound 778] : 6.56 to 9.57 µM

In plain terms, COc1ccc(Nc2ncnc(NC[C@@H]3CCCO3)n2)cc1OC [Compound 790] has a documented IC50 of > 13.6 µM

----------
TARGET OF ASSAY: Zap-70 (Homo sapiens, UniProt P43403)
Construct: Kinases are expressed as either kinase domains or full length constructs; made in house
Sequence (P43403 1-619): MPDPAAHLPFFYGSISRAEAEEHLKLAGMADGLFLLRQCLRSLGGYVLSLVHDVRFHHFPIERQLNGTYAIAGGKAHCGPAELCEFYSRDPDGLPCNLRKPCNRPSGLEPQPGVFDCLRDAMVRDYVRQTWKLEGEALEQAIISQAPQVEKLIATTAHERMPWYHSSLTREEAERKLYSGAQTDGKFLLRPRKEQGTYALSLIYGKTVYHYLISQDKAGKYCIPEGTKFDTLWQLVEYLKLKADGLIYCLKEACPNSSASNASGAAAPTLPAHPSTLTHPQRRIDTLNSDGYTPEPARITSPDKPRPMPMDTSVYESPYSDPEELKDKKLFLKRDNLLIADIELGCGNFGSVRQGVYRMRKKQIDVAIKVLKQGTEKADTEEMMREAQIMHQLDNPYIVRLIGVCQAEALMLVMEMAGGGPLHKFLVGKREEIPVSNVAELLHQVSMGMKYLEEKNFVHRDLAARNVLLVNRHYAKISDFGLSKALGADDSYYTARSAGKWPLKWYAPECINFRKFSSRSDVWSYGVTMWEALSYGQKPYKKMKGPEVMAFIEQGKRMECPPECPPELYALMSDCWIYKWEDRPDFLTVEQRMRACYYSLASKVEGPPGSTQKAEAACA
ASSAY PROTOCOL: Kinase inhibition assay (33P transfer), Zap-70
Assay type: biochemical
CONDITION SUMMARY: Table 3; read-out: Zap-1
Listed here: items and their measured IC50.

Sample answers from the record:
MOLECULE	TARGET OF ASSAY	READOUT TYPE	DATA VALUE
COc1cc(Nc2ncnc(Nc3cccc(Cl)c3)n2)cc(OC)c1OC [Compound 135]	Zap-70 (Homo sapiens, UniProt P43403)	IC50	9.02 to 11.6 µM
COc1cc(Nc2ncnc(-c3c(O)n(C)c4ccccc34)n2)cc(OC)c1OC [Compound 465]	Zap-70 (Homo sapiens, UniProt P43403)	IC50	> 11 µM

Summary for this molecule, COc1ccc(Nc2ncnc(-n3cccc3)n2)c(OC)c1 [Compound 273] : IC50 is > 15.1 µM

Per the records, this molecule ( COc1cc(Nc2ncnc(-n3c(NCC(N)=O)nc4ccccc43)n2)cc(OC)c1OC [Compound 389] ) has IC50 equal to > 9.99 µM

For this molecule ( COc1cc(Nc2ncnc(Nc3cccc(OCc4ccccc4)c3)n2)cc(OC)c1OC [Compound 73] ), measured IC50 is > 9.79 µM

So, COc1cc(Nc2ncnc(Nc3cccc(Oc4ccccc4)c3)n2)cc(OC)c1OC [Compound 105] ? Its IC50 was > 10.1 µM

Documented IC50 of COc1cc(Nc2ncnc(N[C@H](CO)c3ccccc3)n2)cc(OC)c1OC [Compound 425] : > 11.3 µM

----------
TARGET OF ASSAY: Lck (Homo sapiens)
Construct: Kinases are expressed as either kinase domains or full length constructs; made in house
Sequence (P06239 whole entry, species assumed, the tested form may be a part): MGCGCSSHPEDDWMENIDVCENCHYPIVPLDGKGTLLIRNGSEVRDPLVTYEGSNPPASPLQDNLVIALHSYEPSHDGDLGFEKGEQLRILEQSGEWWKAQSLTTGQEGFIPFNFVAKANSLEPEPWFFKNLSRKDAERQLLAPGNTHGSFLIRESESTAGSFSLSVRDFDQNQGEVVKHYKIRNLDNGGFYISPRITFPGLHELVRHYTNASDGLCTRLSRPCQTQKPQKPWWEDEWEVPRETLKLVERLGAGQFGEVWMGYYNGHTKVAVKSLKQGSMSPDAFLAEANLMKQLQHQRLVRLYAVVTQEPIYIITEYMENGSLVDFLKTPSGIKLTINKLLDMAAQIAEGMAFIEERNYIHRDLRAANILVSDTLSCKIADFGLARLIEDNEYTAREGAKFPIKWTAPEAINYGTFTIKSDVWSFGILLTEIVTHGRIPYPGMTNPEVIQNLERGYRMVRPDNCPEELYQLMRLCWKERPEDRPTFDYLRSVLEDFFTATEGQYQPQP
ASSAY PROTOCOL: Kinase inhibition assay (33P transfer), Lck
Type: biochemical
CONDITION SUMMARY: Table 3; read-out: Lck-1
READOUT TYPE: IC50

Some solved cases for reference:
COMPOUND	TARGET OF ASSAY	READOUT TYPE	DATA VALUE
COc1cc(Nc2ncnc(Nc3[nH]ncc3-c3cccs3)n2)cc(OC)c1OC	Lck (Homo sapiens)	IC50	8.23 to 10.6 µM
COc1cc(Nc2ncnc(Nc3ccc(S(=O)(=O)NC(C)=O)cc3)n2)cc(OC)c1OC	Lck (Homo sapiens)	IC50	> 9.48 µM
COc1cc(Nc2ncnc(N3CCOCC3)n2)cc(OC)c1OC	Lck (Homo sapiens)	IC50	> 13 µM
FC(F)C(F)(F)Oc1cccc(Nc2ncnc(-c3cccs3)n2)c1	Lck (Homo sapiens)	IC50	> 12.2 µM
COc1cc(Nc2ncnc(Nc3nc(-c4ccccc4)cs3)n2)cc(OC)c1OC	Lck (Homo sapiens)	IC50	> 10.3 µM
COc1ccc(Sc2ncnc(Nc3cc(OC)c(OC)c(OC)c3)n2)cc1	Lck (Homo sapiens)	IC50	0.999 to 5.99 µM
COc1cc(Nc2ncnc(-c3ccccc3)n2)cc(OC)c1	Lck (Homo sapiens)	IC50	> 14.6 µM
COc1ccc(Nc2ncnc(Nc3cc(-c4ccco4)n[nH]3)n2)cc1OC	Lck (Homo sapiens)	IC50	1.05 to 6.33 µM
COc1cc(Nc2ncnc(Nc3[nH]ncc3-c3ccccc3)n2)cc(OC)c1OC	Lck (Homo sapiens)	IC50	5.72 to 8.34 µM
COc1cc(Nc2ncnc(Nc3ccc(C)cc3F)n2)cc(OC)c1OC	Lck (Homo sapiens)	IC50	1.04 to 6.23 µM

// COc1cc(Nc2ncnc(Nc3cc(OC)c(OC)c(OC)c3)n2)cc(OC)c1 : IC50 value = 0.968 to 5.81 µM

----------
TARGET OF ASSAY: Itk (Homo sapiens)
Construct: Kinases are expressed as either kinase domains or full length constructs; made in house
Sequence (Q08881 whole entry, species assumed, the tested form may be a part): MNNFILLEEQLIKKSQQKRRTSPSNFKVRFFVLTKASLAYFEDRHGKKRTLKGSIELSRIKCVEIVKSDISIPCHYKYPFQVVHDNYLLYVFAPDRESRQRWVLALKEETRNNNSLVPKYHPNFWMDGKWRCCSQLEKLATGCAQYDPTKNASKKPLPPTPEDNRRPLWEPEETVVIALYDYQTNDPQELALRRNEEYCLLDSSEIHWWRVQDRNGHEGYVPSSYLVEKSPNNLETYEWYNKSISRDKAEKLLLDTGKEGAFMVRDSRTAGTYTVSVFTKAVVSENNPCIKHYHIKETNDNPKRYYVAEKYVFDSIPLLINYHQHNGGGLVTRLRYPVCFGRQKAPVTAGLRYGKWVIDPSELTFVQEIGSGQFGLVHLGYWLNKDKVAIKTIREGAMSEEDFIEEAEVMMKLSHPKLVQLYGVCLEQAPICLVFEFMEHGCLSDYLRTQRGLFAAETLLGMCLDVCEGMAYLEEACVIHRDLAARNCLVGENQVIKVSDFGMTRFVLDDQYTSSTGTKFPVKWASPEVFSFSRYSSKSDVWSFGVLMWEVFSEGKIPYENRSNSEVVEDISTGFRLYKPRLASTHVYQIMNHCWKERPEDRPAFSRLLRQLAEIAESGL
ASSAY PROTOCOL: Kinase inhibition assay (33P transfer), Itk
Type: biochemical
CONDITION SUMMARY: read-out: Itk-1
Description: The inhibitor compounds described herein are screened in the following manner. […] Kinases are expressed as either kinase domains or full length constructs fused to glutathione S-transferase (GST) or polyHistidine tagged fusion proteins in either E. colior Baculovirus-High Five expression systems. […] Kinase activity and inhibition are measured essentially by established protocols (Braunwalder et al., 1996). […]
READOUT TYPE: IC50

These solved cases illustrate the format of a correct answer.
O=c1[nH]c2ccccc2n1-c1ncnc(Nc2ccc(C(F)(F)F)cc2)n1 > 12.1 µM
O=C(O)Cc1cccc(Nc2ncnc(-n3c(NCc4ccccc4)nc4ccccc43)n2)c1 > 9.97 µM
COc1cc(Nc2ncnc(N[C@H]3CCCc4ccccc43)n2)cc(OC)c1OC > 11 µM
COc1ccc(CNc2nc3ccccc3n2-c2ncnc(Nc3cccc(Cc4nnn[nH]4)c3)n2)cc1 0.791 to 4.75 µM
COc1cc(Nc2ncnc(-n3c(NCc4ccccc4Cl)nc4ccccc43)n2)cc(OC)c1OC > 8.69 µM
COc1ccc(-c2cc(Nc3ncnc(Nc4ccc(CC(N)=O)cc4)n3)[nH]n2)cc1 0.961 to 5.76 µM

IC50 in this record for COc1cc(Nc2ncnc(N(C)c3cccc4ccccc34)n2)cc(OC)c1OC : > 10.8 µM

IC50 reported for this compound CN(c1cccc(Cl)c1)c1ncnc(Nc2ccc(Cl)c(Cl)c2)n1 : > 11.8 µM
